zone of inhibition at 50 µg/mL for assorted molecules
Tested on: Cryptococcus neoformans
METHOD: Antifungal activity against Cryptococcus neoformans at 50 ug/ml after 48 hrs by agar cup diffusion method
Type: functional
RECORDED_CONDITIONS: read-out: IZ

Cc1ccc(-n2nnc3sc4c(c3c2=O)CCCC4)cc1 | 5 mm
O=c1c2c3c(sc2nnn1-c1ccc(F)c(Cl)c1)CCCC3 | 8 mm
Clc1ccc(COC(Cn2ccnc2)c2ccc(Cl)cc2Cl)c(Cl)c1.O=[N+]([O-])O (stereo not drawn) [MICONAZOLE NITRATE] | 14 mm

Task: Fill in the recorded zone of inhibition at 50 µg/mL for this molecule, with Cryptococcus neoformans as test system: O=c1c2c3c(sc2nnn1-c1ccccc1Cl)CCCC3
Result: 9 mm

Task: Request body: readout zone of inhibition at 50 µg/mL, system Cryptococcus neoformans, query Cc1cccc(-n2nnc3sc4c(c3c2=O)CCCC4)c1 . Return the value.
Result: 6 mm

Task: Value wanted: zone of inhibition at 50 µg/mL (Cryptococcus neoformans) of entry O=c1c2c3c(sc2nnn1-c1ccc(Cl)cc1)CCCC3
Result: 10 mm

Task: What is its zone of inhibition at 50 µg/mL for Cryptococcus neoformans? Entry: O=c1c2c3c(sc2nnn1-c1ccc(F)cc1)CCCC3
Result: 8 mm

Task: Entry O=c1c2c3c(sc2nnn1-c1cccc(Cl)c1)CCCC3 , system Cryptococcus neoformans: what zone of inhibition at 50 µg/mL was measured?
Result: 8 mm

----------
Test system: Aspergillus niger
METHOD: Antifungal activity against Aspergillus niger after 48 hrs by tube dilution method
Assay type: functional
ENDPOINT_NAME: MIC (µg/mL)
Use µg/mL as the unit, but write only the number.

O=c1c2c3c(sc2nnn1-c1ccccc1Cl)CCCC3 | 12.5
Cc1ccccc1-n1nnc2sc3c(c2c1=O)CCCC3 | 25
O=c1c2c3c(sc2nnn1-c1ccc(F)cc1)CCCC3 | 12.5
O=c1c2c3c(sc2nnn1-c1cccc(Cl)c1)CCCC3 | 12.5
Cn1nnc2sc3c(c2c1=O)CCCC3 | 37.5

Task: Look up MIC: O=c1c2c3c(sc2nnn1-c1ccccc1)CCCC3
Result: 37.5

Task: Request the reported MIC associated with O=c1c2c3c(sc2nnn1-c1ccc(Cl)cc1)CCCC3
Result: 12.5

----------
Test system: Staphylococcus epidermidis
METHOD: Antibacterial activity against Staphylococcus epidermidis at 50 ug/ml after 24 hrs by agar cup diffusion method
Type: functional
RECORDED_CONDITIONS: read-out: IZ
The threshold is inclusive: zone of inhibition at 50 µg/mL of exactly 20 mm counts as rule met; values below receive rule not met.

Task: State whether the measured zone of inhibition at 50 µg/mL reaches 20 mm, counting equality as reaching it, for Cn1nnc2sc3c(c2c1=O)CCCC3
Result: rule not met

----------
Tested on: Staphylococcus epidermidis
METHOD: Antibacterial activity against Staphylococcus epidermidis at 50 ug/ml after 24 hrs by agar cup diffusion method
Assay type: functional
RECORDED_CONDITIONS: read-out: IZ
ENDPOINT_NAME: zone of inhibition at 50 µg/mL (mm)
// return numeric value only (unit: mm, not printed)

O=c1c2c3c(sc2nnn1-c1cccc(Cl)c1)CCCC3 | 30

Task: Would you kindly share the measured zone of inhibition at 50 µg/mL for O=c1c2c3c(sc2nnn1-c1ccccc1)CCCC3 ?
Result: 17

Task: May I ask what zone of inhibition at 50 µg/mL has been recorded for O=c1c2c3c(sc2nnn1-c1ccc(F)c(Cl)c1)CCCC3 ?
Result: 24

Task: Which zone of inhibition at 50 µg/mL value belongs to CCn1nnc2sc3c(c2c1=O)CCCC3 ?
Result: 16

Task: Would you kindly share the measured zone of inhibition at 50 µg/mL for O=c1c2c3c(sc2nnn1-c1ccc(Cl)cc1)CCCC3 ?
Result: 32
